# Test system: clinical P. aeruginosa isolates
# Protocol Text: microbe, parasite or virus in culture
# Study Conditions: Pseudomonas aeruginosa, 18 h, read-out: Antibiotic sensibility (MIC) of clinical P. aeruginosa isolate AUMC-Pa-6, strain AUMC-Pa-6; antibiotic alone
Measurement Label: MIC (µM)
Express it in µM; write the number only.

Exercise: Which measured MIC value corresponds to CO/N=C(\C(=O)N[C@@H]1C(=O)N2C(C(=O)[O-])=C(C[N+]3(C)CCCC3)CS[C@H]12)c1csc(N)n1 [Cefepime] ?
Solution: 4

Exercise: Which measured MIC value corresponds to C[C@H]1c2cccc(O)c2C(=O)C2=C(O)[C@]3(O)C(=O)C(C(N)=O)=C(O)[C@@H](N(C)C)[C@@H]3[C@@H](O)[C@@H]21 ?
Solution: 16

Exercise: Which measured MIC value corresponds to C[C@H]1[C@H](NC(=O)/C(=N\OC(C)(C)C(=O)O)c2csc(N)n2)C(=O)N1S(=O)(=O)O ?
Solution: 16

Exercise: Which measured MIC value corresponds to CC[C@H]1OC(=O)[C@H](C)C(=O)[C@H](C)[C@@H](O[C@@H]2O[C@H](C)C[C@H](N(C)C)[C@H]2O)[C@](C)(OC)C[C@@H](C)C(=O)[C@H](C)[C@H]2N(CCCCn3cnc(-c4cccnc4)c3)C(=O)O[C@]12C ?
Solution: 64

Exercise: Which measured MIC value corresponds to CC1(C)S[C@@H]2[C@H](NC(=O)C(C(=O)O)c3ccccc3)C(=O)N2[C@H]1C(=O)O (some centres unmarked) ?
Solution: 128

----------
# Test system: P. aeruginosa AUMC-Pa-4
# Protocol Text: microbe, parasite or virus in culture
# Study Conditions: strain AUMC-Pa-4; antibiotic alone; unit not given
Positions of bridges follow the written chain, without caps; N, C: chain ends. Non-standard residues stand in square brackets, D forms with d. Residues, ends and D or L forms follow the SMILES beside them. *: point of attachment. X1 = CC[C@H](C)CCCCC(=O)*; Dab = NCC[C@H](N)C(=O)O
Answer each item with its documented MICa: MIC of the antibiotic.
Answer using only a numeral; do not append any unit.

Exercise: Request: MICa: MIC of the antibiotic, test system P. aeruginosa AUMC-Pa-4, entry CO[C@H]1/C=C/O[C@@]2(C)Oc3c(C)c(O)c4c(c3C2=O)C2=NC3(CCN(CC(C)C)CC3)NC2=C(NC(=O)/C(C)=C\C=C\[C@H](C)[C@H](O)[C@@H](C)[C@@H](O)[C@@H](C)[C@H](OC(C)=O)[C@@H]1C)C4=O
Solution: 16

Exercise: Request: MICa: MIC of the antibiotic, test system P. aeruginosa AUMC-Pa-4, entry CC[C@H](C)CCCCC(=O)N[C@@H](CCN)C(=O)N[C@H](C(=O)N[C@@H](CCN)C(=O)N[C@H]1CCNC(=O)[C@H]([C@@H](C)O)NC(=O)[C@H](CCN)NC(=O)[C@H](CCN)NC(=O)[C@H](CC(C)C)NC(=O)[C@@H](Cc2ccccc2)NC(=O)[C@H](CCN)NC1=O)[C@@H](C)O [Polymyxin B] (X1-[Dab]T[Dab][Dab][Dab][dF]L[Dab][Dab]T; lactam 4-C (inferred); N-terminus assumed)
Solution: 1

Exercise: Request: MICa: MIC of the antibiotic, test system P. aeruginosa AUMC-Pa-4, entry CC[C@H]1OC(=O)[C@H](C)[C@@H](O[C@H]2C[C@@](C)(OC)[C@@H](O)[C@H](C)O2)[C@H](C)[C@@H](O[C@@H]2O[C@H](C)C[C@H](N(C)C)[C@H]2O)[C@](C)(O)C[C@@H](C)CN(C)[C@H](C)[C@@H](O)[C@]1(C)O
Solution: 128

----------
# System: P. aeruginosa PA14
# Protocol Text: microbe, parasite or virus in culture
# Study Conditions: Pseudomonas aeruginosa, PA14, 18 h, read-out: MICa: MIC of the antibiotic
Measurement Label: MIC

Exercise: Which measured MIC value corresponds to CO[C@H]1[C@H](OC(=O)c2ccc(C)[nH]2)[C@H](O)[C@@H](Oc2ccc3c(O)c(NC(=O)c4c[nH]c(C(=O)Nc5c(O)c6ccc(O[C@H]7OC(C)(C)[C@@H](OC)[C@H](OC(=O)c8ccc(C)[nH]8)[C@@H]7O)c(C)c6oc5=O)c4C)c(=O)oc3c2C)OC1(C)C ?
Solution: 8 µM

Exercise: Which measured MIC value corresponds to CO[C@H]1/C=C/O[C@@]2(C)Oc3c(C)c(O)c4c(c3C2=O)C2=NC3(CCN(CC(C)C)CC3)NC2=C(NC(=O)/C(C)=C\C=C\[C@H](C)[C@H](O)[C@@H](C)[C@@H](O)[C@@H](C)[C@H](OC(C)=O)[C@@H]1C)C4=O ?
Solution: > 128 µM

Exercise: Which measured MIC value corresponds to COc1cc(Cc2cnc(N)nc2N)cc(OC)c1OC ?
Solution: > 128 µM

Exercise: Which measured MIC value corresponds to CO[C@H]1/C=C/O[C@@]2(C)Oc3c(C)c(O)c4c(O)c(c(/C=N/N5CCN(C)CC5)c(O)c4c3C2=O)NC(=O)/C(C)=C\C=C\[C@H](C)[C@H](O)[C@@H](C)[C@@H](O)[C@@H](C)[C@H](OC(C)=O)[C@@H]1C ?
Solution: > 128 µM

Exercise: Which measured MIC value corresponds to CO[C@H]1/C=C/O[C@@]2(C)Oc3c(C)c(O)c4c(O)c(c(/C=N/N5CCN(C6CCCC6)CC5)c(O)c4c3C2=O)NC(=O)/C(C)=C\C=C\[C@H](C)[C@H](O)[C@@H](C)[C@@H](O)[C@@H](C)[C@H](OC(C)=O)[C@@H]1C ?
Solution: > 128 µM

Exercise: Which measured MIC value corresponds to CO[C@@H]1[C@@H](OC(N)=O)[C@@H](O)[C@H](Oc2ccc3c(O)c(NC(=O)c4ccc(O)c(CC=C(C)C)c4)c(=O)oc3c2C)OC1(C)C ?
Solution: > 128 µM

Exercise: Which measured MIC value corresponds to C[C@H]1COc2c(N3CCN(C)CC3)c(F)cc3c(=O)c(C(=O)O)cn1c23 ?
Solution: 0.5 µM

Exercise: Which measured MIC value corresponds to CO[C@H]1/C=C/O[C@@]2(C)Oc3c(C)c(O)c4c(O)c(c5c(nc6cc(C)ccn65)c4c3C2=O)NC(=O)/C(C)=C\C=C\[C@H](C)[C@H](O)[C@@H](C)[C@@H](O)[C@@H](C)[C@H](OC(C)=O)[C@@H]1C ?
Solution: > 128 µM

Exercise: Which measured MIC value corresponds to CCn1cc(C(=O)O)c(=O)c2ccc(C)nc21 ?
Solution: > 128 µM

Exercise: Which measured MIC value corresponds to CC1COc2c(N3CCN(C)CC3)c(F)cc3c(=O)c(C(=O)O)cn1c23 (stereo not shown) ?
Solution: 1 µM

----------
# System: P. aeruginosa AUMC-Pa-3
# Protocol Text: microbe, parasite or virus in culture
# Study Conditions: Pseudomonas aeruginosa, AUMCPA3, 18 h, read-out: MICa: MIC of the antibiotic
Measurement Label: MIC (µM)
Express it in µM; write the number only.

Exercise: Request: MIC, test system P. aeruginosa AUMC-Pa-3, entry CO[C@H]1/C=C/O[C@@]2(C)Oc3c(C)c(O)c4c(c3C2=O)C2=NC3(CCN(CC(C)C)CC3)NC2=C(NC(=O)/C(C)=C\C=C\[C@H](C)[C@H](O)[C@@H](C)[C@@H](O)[C@@H](C)[C@H](OC(C)=O)[C@@H]1C)C4=O
Solution: 16

Exercise: Request: MIC, test system P. aeruginosa AUMC-Pa-3, entry CO[C@H]1/C=C/O[C@@]2(C)Oc3c(C)c(O)c4c(O)c(c5c(nc6cc(C)ccn65)c4c3C2=O)NC(=O)/C(C)=C\C=C\[C@H](C)[C@H](O)[C@@H](C)[C@@H](O)[C@@H](C)[C@H](OC(C)=O)[C@@H]1C
Solution: 8

Exercise: Request: MIC, test system P. aeruginosa AUMC-Pa-3, entry CO[C@H]1[C@H](OC(=O)c2ccc(C)[nH]2)[C@H](O)[C@@H](Oc2ccc3c(O)c(NC(=O)c4c[nH]c(C(=O)Nc5c(O)c6ccc(O[C@H]7OC(C)(C)[C@@H](OC)[C@H](OC(=O)c8ccc(C)[nH]8)[C@@H]7O)c(C)c6oc5=O)c4C)c(=O)oc3c2C)OC1(C)C
Solution: 8

Exercise: Request: MIC, test system P. aeruginosa AUMC-Pa-3, entry C[C@H]1c2cccc(O)c2C(=O)C2=C(O)[C@]3(O)C(=O)C(C(N)=O)=C(O)[C@@H](N(C)C)[C@@H]3[C@@H](O)[C@@H]21
Solution: 16

----------
Answer each item with its documented FICI.
# Test system: P. aeruginosa AUMC-Pa-5
# Protocol Text: microbe, parasite or virus in culture
# Study Conditions: strain AUMC-Pa-5; antibiotic + D-11 (MICb/MICbc 64/4)
Answer using only a numeral; do not append any unit.

Exercise: Which measured FICI value corresponds to CC[C@H]1OC(=O)[C@H](C)[C@@H](O[C@H]2C[C@@](C)(OC)[C@@H](O)[C@H](C)O2)[C@H](C)[C@@H](O[C@@H]2O[C@H](C)C[C@H](N(C)C)[C@H]2O)[C@](C)(O)C[C@@H](C)CN(C)[C@H](C)[C@@H](O)[C@]1(C)O ?
Solution: 0.313

Exercise: Which measured FICI value corresponds to C[C@@H]1O[C@@H]1P(=O)(O)O ?
Solution: 0.563

Exercise: Which measured FICI value corresponds to CO[C@@H]1[C@@H](OC(=O)c2ccc(C)[nH]2)[C@@H](O)[C@H](Oc2ccc3c(O)c(NC(=O)c4ccc(O)c(CC=C(C)C)c4)c(=O)oc3c2Cl)OC1(C)C ?
Solution: 2.063

Exercise: Which measured FICI value corresponds to CC[C@H]1OC(=O)[C@H](C)[C@@H](O[C@H]2C[C@@](C)(OC)[C@@H](O)[C@H](C)O2)[C@H](C)[C@@H](O[C@@H]2O[C@H](C)C[C@H](N(C)C)[C@H]2O)[C@](C)(O)C[C@@H](C)C(=O)[C@H](C)[C@@H](O)[C@]1(C)O ?
Solution: 0.313

Exercise: Which measured FICI value corresponds to C[C@H]1COc2c(N3CCN(C)CC3)c(F)cc3c(=O)c(C(=O)O)cn1c23 ?
Solution: 2.063
